All values here come from paper PMC5943153.

Target: T1, T25-HP1492 (Nfu) (Helicobacter pylori strain 26695, UniProt O26025 2-89)
T1 sequence (looked up): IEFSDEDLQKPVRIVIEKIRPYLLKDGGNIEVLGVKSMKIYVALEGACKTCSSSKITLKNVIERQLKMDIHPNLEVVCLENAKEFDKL
Test: two-hybrid
experimental endpoint: growth OD595 in M63-maltose (OD595)
# number only, unit OD595 dropped from output

Use the examples below as a reference point.
>>> value_observed("T18-HP0117 (natural protein, Helicobacter pylori strain 26695, UniProt P56080 2-308, looked up) AKENPPIVFGPVLSRRFGKSLGVDLSPSKKQCNYNCIYCELGKAKPIERMEEVIKVETLINAIQNALNNLTTPIDVLTITANGEPTLYPHLLELIQSIKPFLKGVKTLILSNGSLFYEPKVQQALKEFDIVKFSLDAIDLKAFERVDKPYSKDINKILEGILRFSQIYQGQLVAEVLLIKGVNDSANNLKLIAAFLKQINIARVDLSTIDRPSSFKAPKLSEDELLKCSLFFEGLCVSLPKRSITQAKKLISCGIDELLALISRRPLSAEEAPLILDSNAFKHLETLLNHKQITIKKVGSLEFYCAF")
0.09
>>> value_observed("T18-HP1540 (natural protein, Helicobacter pylori strain 26695, UniProt O26065 2-167, looked up) ADIQRRDFLGMSLASVTAIGAIASLVAMKKTWDPLPSVVSAGFTTIDVANMQEGQFSTVEWRGKPVYILKRSKKEGFNEKRDFKVGESVFTTAIQICTHLGCIPTYQDEEKGFLCPCHGGRFTSDGVNIAGTPPPRPFDIPPFKIEGTKITFGEAGAEYKKMMAKA")
0.17
>>> value_observed("T18-HP1428 (natural protein, Helicobacter pylori strain 26695, UniProt O25970 2-357, looked up) KASIYDFTLKELSQLLKPSFRAKQLYLWLYAKYKTSFKDMQNNFSKDFIAYLEREFALRTIEITHVRESVDGSKKYLFKSLRDNHTFEAVLLKMKDKKIDAETNAILEREKYTVCVSCQIGCQVGCSFCFTQKGGFVRNLKASEIIQQALLIKEDNNLPLEKALNIVFMGMGEPLNNLDEVCKAIEIFNTGMQISPKRITISTSGVADKIPILAGKNLGVQLAISLHAVDDKTRSSLMPLNKKYNIECVLNEVRKWPLEQRKRVMFEYLLIKDLNDSLDCAKKLLKLLNGIKSKVNLILFNPHEGSKFERPSLENARMFADFLNSKGLLCTIRESKALDIEAACGQLREKKLSQQI")
0.08

[ask] I'd like to know its growth OD595 in M63-maltose. The binder in question is T18-HP0221 (natural protein, Helicobacter pylori strain 26695, UniProt O25009 2-326, looked up) AKHDLVGSVLWDAYSKEVQRRMDNPTHLGVITEEQAKAKNAKLIVADYGAEACGDAVRLYWLVDESTDRIVDAKFKSFGCGTAIASSDMMVELCLNKRVQDAVKITNLDVERGLRDDPDTPAVPGQKMHCSVMAYDVIKKAAGMYLGKNAEDFEEEIIVCECARVSLGTIKEVIKLNDLKSVEEITNYTKAGAFCKSCVRPGGHEKRDYYLVDILKEVREEMEAEKLKATANKSQSGELAFREMTMVQKIKAVDKVIDENIRPMLMMDGGDLEILDIKESDDYIDVYIRYMGACDGCMSATTGTLFAIENALQELLDRSIRVLPI
[reply] 0.08

[ask] And the next one, T18-HP0568 (natural protein, Helicobacter pylori strain 26695, UniProt O25292 2-255, looked up) PLELFEKVCKEVAPLTQMITLHVLGDPCKLKNLNHYLSTARRFSLKVDLVTSGVYLHDFETLLQDVIYQISISLDAGLDHRNKLNQHRYIQKILEFCRYKCEKNSEVFLNLRIQDSTLDKHQNLIKPFLESFECVSLEGLKTQGRARLFKKSFLNIQKTFKWPSLNAQNPLNQKSKIPYCYGLIKQIAILSNGVVVPCCMDTQANISLGDLNHTPLKDVLKSQKAMAIKTHFLKGEALELLCQNCSYPLIRYKK ?
[reply] 0.14
